Cited source for all entries: PubChem BioAssay AID1159580

- Assay: chemical genetic growth profiling, strain panel (AID 1159580);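 note: tested at 20 µM; growth read once vehicle control cultures reached saturation at 30 °C; 1 = growth at the plate median or of vehicle wells; lower values mean less growth of the strain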
- Condition Parameters: S. cerevisiae deletion strains, growth OD, locus YMR231W, strain pep5, active compounds read low
About 2,000 (36%) of roughly 5,500 compounds were called active. Another 18% or so got no clear call; they are omitted. The list shows a part of the results. Where a SMILES comes first, the peptide text is derived from it. Bridges are numbered along the chain shown (N, C = ends). [ ]: non-standard residue; d: D form. The star is where a group is joined. Octanoyl(6-Me) = CCC(C)CCCCC(=O)*; Orn = NCCC[CH](N)C(=O)O; Dab = NCC[CH](N)C(=O)O
Readout Name: normalized growth
Lab note: jot the number down without any unit.

The cases that follow already have their normalized growth on record.
Notebook: "COc1cc(O)cc(OC)c1OC" , normalized growth read as 0.994

Notebook: "O=C(NC1CCCCC1)NC1CCCCC1" , normalized growth read as 0.978

---
Notebook: "CC(=O)NS(=O)(=O)c1ccc(NC(=O)c2ccccc2C(=O)O)cc1" , normalized growth read as 1.02

Notebook: "COc1cc(/C=C/C(=O)N2CCC=CC2=O)cc(OC)c1OC" , normalized growth read as 0.998

Notebook: CC(C)CC1NC(=O)C(CCCN)NC(=O)C(C(C)C)NC(=O)C2CCCN2C(=O)C(Cc2ccccc2)NC(=O)C(CC(C)C)NC(=O)C(CCCN)NC(=O)C(C(C)C)NC(=O)C2CCCN2C(=O)C(Cc2ccccc2)NC1=O (stereo unspecified) (cyclo(FPV[Orn]LFPV[Orn]L); configuration not given here) , normalized growth read as 0.324

Notebook: CCC(C)CCCCC(=O)NC(CCN)C(=O)NC(C(=O)NC(CCN)C(=O)NC1CCNC(=O)C(C(C)O)NC(=O)C(CCN)NC(=O)C(CCN)NC(=O)C(CC(C)C)NC(=O)C(Cc2ccccc2)NC(=O)C(CCN)NC1=O)C(C)O (stereo unspecified) ({Octanoyl(6-Me)}-[Dab]T[Dab][Dab][Dab]FL[Dab][Dab]T; lactam 4-C; configuration not given here) , normalized growth read as 1

----------
- Assay: chemical genetic growth profiling, strain panel (AID 1159580);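 note: tested at 20 µM; growth read once vehicle control cultures reached saturation at 30 °C; 1 = growth at the plate median or of vehicle wells; lower values mean less growth of the strain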
- Condition Parameters: S. cerevisiae deletion strains, growth OD, locus YDR297W, strain sur2, active compounds read low
Screen size: about 5,500 compounds; about 2,000 (36%) were called active. Inconclusive results (about 18%) are left out. The list shows a part of the results.
Recorded normalized growth values for a group of molecules are listed next.

The cases that follow already have their normalized growth on record.
Notebook: "NC[C@H]1O[C@H](O[C@H]2[C@H](O)[C@@H](O[C@H]3O[C@H](CO)[C@@H](O)[C@H](N)[C@H]3O)[C@H](N)C[C@@H]2N)[C@H](N)C[C@@H]1O" , normalized growth read as 1.01 (inactive)

Notebook: "COc1c2ccoc2cc2oc(C)cc(=O)c12" , normalized growth read as 1 (inactive)

---
Notebook: "CCOC([O-])=Nc1c[n+](N2CCOCC2)no1" , normalized growth read as 1 (inactive)

Notebook: "COc1cccc(OC)c1C(=O)N[C@@H]1C(=O)N2[C@@H]1SC(C)(C)[C@@H]2C(=O)O" , normalized growth read as 1 (inactive)

Notebook: C#CC1(O)CCC2C3CCC4=CC(=O)CCC4(C)C3CCC21C (stereo not given) , normalized growth read as 0.98 (inactive)

Notebook: "Cc1onc(-c2c(Cl)cccc2Cl)c1C(=O)N[C@@H]1C(=O)N2[C@@H]1SC(C)(C)[C@@H]2C(=O)O" , normalized growth read as 0.973 (inactive)

Notebook: "CN[C@@H]1[C@@H](O[C@H]2O[C@H](CO)[C@@H](N)[C@H](O)[C@H]2O)O[C@H]2C[C@@H](N)[C@H](O[C@H]3[C@H](O)[C@@H](O)[C@H](N)C[C@@H]3N)O[C@@H]2[C@@H]1O" , normalized growth read as 1.01 (inactive)

Notebook: CCC1C(=O)OCC1Cc1cncn1C (stereo not given) , normalized growth read as 1.02 (inactive)

Notebook: "Cc1c(NC(=O)c2cccnc2)c(=O)n(-c2ccccc2)n1C" , normalized growth read as 0.999 (inactive)

Notebook: "COc1cc(NS(=O)(=O)c2ccc(N)cc2)ncn1" , normalized growth read as 1 (inactive)

Notebook: "CCC1(CC)C(=O)C=CNC1=O" , normalized growth read as 0.995 (inactive)

Notebook: CC(=O)[C@@]1(O)CCC2C3CCC4=CC(=O)CC[C@]4(C)C3CC[C@@]21C (stereo not given in full) , normalized growth read as 0.994 (inactive)

Notebook: "CC1(C)S[C@@H]2[C@H](NC(=O)[C@H](C(=O)O)c3cccs3)C(=O)N2[C@H]1C(=O)O" , normalized growth read as 1.01 (inactive)

Notebook: CC(=O)OCC(=O)[C@@]1(O)CCC2C3CCC4=CC(=O)CC[C@]4(C)C3[C@@H](O)C[C@@]21C (stereo not given in full) , normalized growth read as 0.997 (inactive)

Notebook: "CO[C@@]1(NC(=O)Cc2cccs2)C(=O)N2C(C(=O)O)=C(COC(N)=O)CS[C@@H]21" , normalized growth read as 0.998 (inactive)

Notebook: "COc1c2occc2c(OC)c2c(=O)cc(C)oc12" , normalized growth read as 0.979 (inactive)

Notebook: Cc1onc(-c2ccccc2)c1C(=O)NC1C(=O)N2[C@@H]1SC(C)(C)[C@@H]2C(=O)O (stereo not given in full) , normalized growth read as 1.01 (inactive)

Notebook: C#C[C@]1(O)CCC2C3CCC4=Cc5oncc5C[C@]4(C)C3CC[C@@]21C (stereo not given in full) , normalized growth read as 0.937 (inactive)

Notebook: C[C@]12CCC(=O)C=C1CCC1C2C(=O)C[C@@]2(C)C1CC[C@]2(O)C(=O)CO (stereo not given in full) , normalized growth read as 1 (inactive)

Notebook: COc1cc2c(cc1OC)[C@@]13CCN4CC5=CCOC6CC(=O)N2C1[C@H]6[C@H]5C[C@H]43 (stereo not given in full) , normalized growth read as 0.996 (inactive)

----------
- Assay: chemical genetic growth profiling, strain panel (AID 1159580);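 note: tested at 20 µM; growth read once vehicle control cultures reached saturation at 30 °C; 1 = growth at the plate median or of vehicle wells; lower values mean less growth of the strain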
- Condition Parameters: S. cerevisiae deletion strains, growth OD, locus YKL085W, strain MDH1, active compounds read low
Screen size: about 5,500 compounds; about 2,000 (36%) were called active. Inconclusive results (about 18%) are left out. This is one part of the list.
Recorded normalized growth values for a group of molecules are listed next.
Lab note: jot the number down without any unit.

The cases that follow already have their normalized growth on record.
Notebook: "CCOc1cccc(C(=O)c2ccc(O)c(O)c2O)c1" , normalized growth read as 0.955

Notebook: "COc1cccc(O)c1O" , normalized growth read as 1.02

---
Notebook: CC[C@H]1CN2CCc3cc(OC)c(OC)cc3C2C[C@@H]1CC1NCCc2cc(OC)c(OC)cc21 (stereo partly specified) , normalized growth read as 1.02

Notebook: "CCOc1ccc(C(=O)c2cc(O)c(OC)c(OC)c2O)cc1" , normalized growth read as 0.985

Notebook: "CN[C@@H]1[C@@H](O[C@H]2O[C@H](CO)[C@@H](N)[C@H](O)[C@H]2O)O[C@H]2C[C@@H](N)[C@H](O[C@H]3[C@H](O)[C@@H](O)[C@H](N)C[C@@H]3N)O[C@@H]2[C@@H]1O" , normalized growth read as 0.982

Notebook: "CC1(C)C=Cc2cc3ccc(=O)oc3cc2O1" , normalized growth read as 0.973

Notebook: COc1cc2c(cc1OC)[C@@]13CCN4CC5=CCOC6CC(=O)N2C1[C@H]6[C@H]5C[C@H]43 (stereo partly specified) , normalized growth read as 1

----------
- Assay: chemical genetic growth profiling, strain panel (AID 1159580);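 note: tested at 20 µM; growth read once vehicle control cultures reached saturation at 30 °C; 1 = growth at the plate median or of vehicle wells; lower values mean less growth of the strain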
- Condition Parameters: S. cerevisiae deletion strains, growth OD, locus YGR229C, strain SMI1
Out of some 5,500 compounds screened, about 2,000 (36%) were called active. Roughly 18% stayed inconclusive and do not appear here. Cut-off read from the data, not from the text of the source: active = normalized growth mostly below about 0.91 (no sharp cut-off); inconclusive = no clear call, values can overlap the other calls; inactive = mostly above about 0.92. The list shows a part of the results.
Entry note: the call must match one of true (1) (active), false (0) (inactive)

Completed entries (count: 2):
Req: What outcome does the record of this test show for "CN[C@@H]1[C@@H](O[C@H]2O[C@H](CO)[C@@H](N)[C@H](O)[C@H]2O)O[C@H]2C[C@@H](N)[C@H](O[C@H]3[C@H](O)[C@@H](O)[C@H](N)C[C@@H]3N)O[C@@H]2[C@@H]1O" ?
Resp: false (0)

Req: What outcome does the record of this test show for "Cc1ccc(-c2nn(-c3ccccc3)c(=O)c3ccccc23)cc1C" ?
Resp: false (0)

---
Req: What outcome does the record of this test show for "O=C(OC[C@H]1O[C@H](OC(=O)c2cc(O)c(O)c(OC(=O)c3cc(O)c(O)c(O)c3)c2)[C@H](OC(=O)c2cc(O)c(O)c(OC(=O)c3cc(O)c(O)c(O)c3)c2)[C@@H](OC(=O)c2cc(O)c(O)c(OC(=O)c3cc(O)c(O)c(O)c3)c2)[C@@H]1OC(=O)c1cc(O)c(O)c(OC(=O)c2cc(O)c(O)c(O)c2)c1)c1cc(O)c(O)c(OC(=O)c2cc(O)c(O)c(O)c2)c1" ?
Resp: true (1)

Req: What outcome does the record of this test show for "Cc1cc(=O)n(-c2ccccc2)n1C" ?
Resp: false (0)

Req: What outcome does the record of this test show for "CC(C)(C)c1ccc(CSc2nc(N)cc(=O)[nH]2)cc1" ?
Resp: false (0)

Req: What outcome does the record of this test show for NC[C@H]1O[C@H](O[C@H]2C(O[C@@H]3O[C@H](CO)[C@@H](O)[C@H]3O)[C@@H](O)[C@H](N)C[C@@H]2N)[C@H](N)[C@@H](O)[C@@H]1O (stereo partly drawn) ?
Resp: false (0)

Req: What outcome does the record of this test show for "CCc1c(C(=O)OC)ncc2[nH]c3cc(OC)c(OC)cc3c12" ?
Resp: false (0)

Req: What outcome does the record of this test show for "Cc1cc(C(C)(C)C)c(O)c(C)c1CC1=NCCN1" ?
Resp: false (0)
